- SYSTEM_TESTED: Aromatase (Homo sapiens)
- Sequence (P11511 whole entry): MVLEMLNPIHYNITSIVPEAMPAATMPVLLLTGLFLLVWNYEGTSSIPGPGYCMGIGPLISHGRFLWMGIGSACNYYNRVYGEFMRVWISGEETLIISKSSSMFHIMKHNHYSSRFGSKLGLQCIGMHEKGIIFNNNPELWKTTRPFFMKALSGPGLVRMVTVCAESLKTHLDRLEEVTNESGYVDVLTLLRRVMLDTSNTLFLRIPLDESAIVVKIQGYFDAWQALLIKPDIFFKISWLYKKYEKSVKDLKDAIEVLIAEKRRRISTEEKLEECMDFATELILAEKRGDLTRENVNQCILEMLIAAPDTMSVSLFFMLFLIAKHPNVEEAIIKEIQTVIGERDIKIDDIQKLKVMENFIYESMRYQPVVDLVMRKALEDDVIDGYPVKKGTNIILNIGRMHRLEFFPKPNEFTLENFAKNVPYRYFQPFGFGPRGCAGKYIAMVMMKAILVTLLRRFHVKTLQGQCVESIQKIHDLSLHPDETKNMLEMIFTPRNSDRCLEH
Field: Ki. Provide a value for each of the molecules that follow.
Only the number, expressed in nM, is required.

Give Ki for CC12CCC3C(CCC4=CCCCC43C)C1C[C@H](Br)C2=O (some centres not stated)
455

Give Ki for C#CC(O)C12CCCC=C1CCC1C3CCC(=O)C3(C)CCC12 (configuration not stated)
7750

Give Ki for CC12CCC3C(CCC4=CCCCC43C(F)F)C1CCC2=O (configuration not stated)
443

Give Ki for CC12CCCC=C1CCC1C2CCC2(C)C(O)CCC12 (configuration not stated)
830

Give Ki for CC12CCC3C(CCC4=CCCCC43CO)C1CCC2O (configuration not stated)
170

Give Ki for C[C@]12CC[C@H]3[C@@H](CCC4=CCCC[C@@]43CO)[C@@H]1CCC2=O
13

Give Ki for CC12CCC3C(CCC4=CCCCC43C)C1C[C@@H](Br)C2=O (some centres not stated)
228

* * *

ASSAY_METRIC: pIC50
Here pIC50 is given on a logarithmic scale as minus log10 of the concentration in mol/L.

Identify measured pIC50 obtained with Aromatase (Homo sapiens, UniProt P11511) for CC12CCCC=C1CCC1C2CCC2(C)C(O)CCC12 (configuration not stated) .
5.14

Identify measured pIC50 obtained with Aromatase (Homo sapiens, UniProt P11511) for C[C@]12CC[C@H]3[C@@H](CCC4=CCCC[C@@]43CO)[C@@H]1CCC2=O .
6.57

Identify measured pIC50 obtained with Aromatase (Homo sapiens, UniProt P11511) for CC12CCC3C(CCC4=CCCCC43C)C1C[C@H](Br)C2=O (some centres not stated) .
5.23

Identify measured pIC50 obtained with Aromatase (Homo sapiens, UniProt P11511) for C#CC(O)C12CCCC=C1CCC1C3CCC(=O)C3(C)CCC12 (configuration not stated) .
4.21

Identify measured pIC50 obtained with Aromatase (Homo sapiens, UniProt P11511) for C[C@]12CC[C@H]3[C@@H](CCC4=CCCC[C@@]43C(F)F)[C@@H]1CC[C@@H]2O .
4.59

Identify measured pIC50 obtained with Aromatase (Homo sapiens, UniProt P11511) for CC12CCC3C(CCC4=CCCCC43C(F)F)C1CCC2=O (configuration not stated) .
5.92

Identify measured pIC50 obtained with Aromatase (Homo sapiens, UniProt P11511) for CC(=O)OCC12CCCC=C1CCC1C2CCC2(C)C(O)CCC12 (configuration not stated) .
4.36

* * *

Field: IC50. Provide a value for each of the compounds that follow.
- SYSTEM_TESTED: Aromatase (Homo sapiens, UniProt P11511)
- Sequence (P11511 whole entry): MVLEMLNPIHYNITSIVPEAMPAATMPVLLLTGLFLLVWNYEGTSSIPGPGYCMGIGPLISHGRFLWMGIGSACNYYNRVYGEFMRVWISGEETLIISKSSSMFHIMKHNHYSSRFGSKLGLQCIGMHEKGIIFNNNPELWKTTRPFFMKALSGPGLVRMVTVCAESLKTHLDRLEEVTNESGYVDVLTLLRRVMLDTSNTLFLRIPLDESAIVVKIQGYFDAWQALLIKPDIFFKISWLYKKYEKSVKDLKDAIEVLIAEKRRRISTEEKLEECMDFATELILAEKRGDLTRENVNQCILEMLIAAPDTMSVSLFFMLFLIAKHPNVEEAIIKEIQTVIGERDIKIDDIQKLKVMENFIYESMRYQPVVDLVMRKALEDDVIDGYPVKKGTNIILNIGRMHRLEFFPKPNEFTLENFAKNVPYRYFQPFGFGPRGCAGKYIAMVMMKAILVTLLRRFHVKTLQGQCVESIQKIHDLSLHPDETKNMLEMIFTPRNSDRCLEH

Give IC50 for C[C@]12CCC(=O)C(O)=C1CC[C@@H]1[C@@H]2CC[C@]2(C)C(=O)CC[C@@H]12
0.41 µM

Give IC50 for CC(=O)OCC12CCCC=C1CCC1C2CCC2(C)C(OC(C)=O)CCC12 (stereo not given)
38 µM

Give IC50 for CC(=O)OC1CCC2C3CCC4=CCCCC4(CO)C3CCC12C (stereo not given)
100 µM

Give IC50 for CC12CCC3C(CCC4=CCCCC43CO)C1CCC2O (stereo not given)
2.3 µM

Give IC50 for CC12CCC3C(CCC4=CCCCC43C)C1C[C@@H](Br)C2=O (stereo not given in full)
4.1 µM
